- SYSTEM: ΔF508-CFTR (Homo sapiens, UniProt P13569, DEL508-508)
- Sequence (P13569 with tags, fused parts or gaps DEL508-508): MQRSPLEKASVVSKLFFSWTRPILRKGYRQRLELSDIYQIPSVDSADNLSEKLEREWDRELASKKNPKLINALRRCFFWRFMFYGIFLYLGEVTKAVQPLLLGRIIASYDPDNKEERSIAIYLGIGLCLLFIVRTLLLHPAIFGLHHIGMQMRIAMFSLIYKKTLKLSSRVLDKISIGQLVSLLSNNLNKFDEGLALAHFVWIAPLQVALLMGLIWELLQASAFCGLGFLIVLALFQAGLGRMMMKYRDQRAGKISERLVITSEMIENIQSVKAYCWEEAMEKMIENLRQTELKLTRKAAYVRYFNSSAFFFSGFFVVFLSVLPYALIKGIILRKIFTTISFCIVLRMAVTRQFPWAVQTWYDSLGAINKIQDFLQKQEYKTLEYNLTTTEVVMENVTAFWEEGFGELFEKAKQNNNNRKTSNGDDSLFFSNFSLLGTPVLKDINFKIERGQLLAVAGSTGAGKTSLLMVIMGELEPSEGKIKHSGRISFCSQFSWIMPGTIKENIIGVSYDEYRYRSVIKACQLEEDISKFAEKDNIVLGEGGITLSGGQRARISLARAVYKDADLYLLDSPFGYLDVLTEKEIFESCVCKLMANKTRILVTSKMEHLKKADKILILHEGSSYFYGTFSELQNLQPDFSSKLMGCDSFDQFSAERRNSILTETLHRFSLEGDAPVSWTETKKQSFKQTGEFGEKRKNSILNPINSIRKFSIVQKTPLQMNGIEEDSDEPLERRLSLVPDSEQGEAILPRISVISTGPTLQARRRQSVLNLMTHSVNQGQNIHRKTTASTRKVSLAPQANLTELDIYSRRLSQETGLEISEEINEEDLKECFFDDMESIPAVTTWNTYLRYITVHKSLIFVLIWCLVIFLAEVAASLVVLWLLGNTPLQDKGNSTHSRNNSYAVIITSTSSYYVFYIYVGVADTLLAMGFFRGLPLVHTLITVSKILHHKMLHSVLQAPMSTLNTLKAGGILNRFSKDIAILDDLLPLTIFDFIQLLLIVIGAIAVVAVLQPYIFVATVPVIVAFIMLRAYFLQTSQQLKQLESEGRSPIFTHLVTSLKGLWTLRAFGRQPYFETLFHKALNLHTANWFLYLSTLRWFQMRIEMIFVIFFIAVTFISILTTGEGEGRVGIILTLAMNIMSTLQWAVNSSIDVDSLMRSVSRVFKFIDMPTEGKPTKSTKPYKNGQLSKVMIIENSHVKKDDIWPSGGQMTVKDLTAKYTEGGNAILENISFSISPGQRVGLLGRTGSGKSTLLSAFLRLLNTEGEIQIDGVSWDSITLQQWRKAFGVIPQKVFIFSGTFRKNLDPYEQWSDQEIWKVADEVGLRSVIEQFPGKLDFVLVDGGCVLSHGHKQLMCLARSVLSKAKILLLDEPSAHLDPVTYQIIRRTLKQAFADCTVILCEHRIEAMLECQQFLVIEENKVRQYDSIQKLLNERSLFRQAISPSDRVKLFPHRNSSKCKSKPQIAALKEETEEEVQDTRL
- ASSAY_DETAILS: Membrane potential optical (FRET/VIPR) assay, identification of potentiator compounds
- CONDITION_DETAILS: Table 3; assay not given
pEC50: −log10 of the molar value.
MEASURED_PROPERTY: pEC50

In the examples that follow, each entry is paired with its recorded pEC50.
* CC1(C)CCCNc2cc(NC(=O)c3c[nH]c4ccccc4c3=O)ccc21 | > 5.00
* Cc1cccc(C)c1NC(=O)c1c[nH]c2ccccc2c1=O | > 5.00
* O=C(Nc1ccc(C(F)(F)F)cc1N1CCCCC1)c1c[nH]c2ccccc2c1=O | > 5.00
* CC(C)(C)OC(=O)Nc1ccc(NC(=O)c2c[nH]c3ccccc3c2=O)c(C(F)(F)F)c1 | > 5.00
* CC(C)c1ccc(NC(=O)OC(C)(C)C)cc1NC(=O)c1c[nH]c2ccccc2c1=O | > 5.00
* CC(C)(C)c1cc(C(C)(C)C)c(NC(=O)c2c[nH]c3cc(O)ccc3c2=O)cc1O | > 5.00
* O=C(Nc1cc(O)c(C2CCCCC2)cc1C(F)(F)F)c1c[nH]c2ccccc2c1=O | > 5.00
* CC(C)(C)c1cc(C(C)(C)C)c(NC(=O)c2c[nH]c3cc(F)c(F)cc3c2=O)cc1O | > 5.00

API: value(readout= pEC50, system= ΔF508-CFTR (Homo sapiens, UniProt P13569, DEL508-508), query= Cc1ccc2c(=O)c(C(=O)Nc3cc4[nH]ccc4cc3C(F)(F)F)c[nH]c2c1 )
> 5.00

Next: COC(=O)NCC(C)(C)c1ccc(NC(=O)c2c[nH]c3ccccc3c2=O)cc1
> 5.00

* * *

- SYSTEM: ΔF508-CFTR (Homo sapiens, UniProt P13569, DEL508-508)
- ASSAY_DETAILS: Membrane potential optical (FRET/VIPR) assay, identification of potentiator compounds
- CONDITION_DETAILS: Table 3; assay not given
pEC50: −log10 of the molar value.
MEASURED_PROPERTY: pEC50

• O=C(Nc1ccc2c(c1)NCCCC2)c1c[nH]c2ccccc2c1=O [Compound 10] = > 5.00
• COc1ccc(NC(=O)c2c[nH]c3ccccc3c2=O)c(OC)n1 [Compound 193] = 4.60 to 5.00
• Cc1nc2cc(NC(=O)c3c[nH]c4ccccc4c3=O)ccc2s1 [Compound 44] = 4.60 to 5.00

Endpoint output: pEC50 of CC(C)c1ccc(-c2ccccc2NC(=O)c2c[nH]c3ccccc3c2=O)cc1 [Compound 432] . Value?
> 5.00

Here is the next compound: CC(C)c1ccc(NC(=O)c2c[nH]c3c(F)cccc3c2=O)c(C(F)(F)F)c1 [Compound 573]
> 5.00

What about O=C(Nc1ccccc1-c1cc2ccccc2[nH]1)c1c[nH]c2ccccc2c1=O [Compound 38] ?
> 5.00

Try the compound COc1ccc(C)cc1NC(=O)c1c[nH]c2ccccc2c1=O [Compound 120]
4.60 to 5.00

What do you get for O=C(Nc1ccc2c(C3CCCC3)c[nH]c2c1)c1c[nH]c2ccccc2c1=O [Compound 186] ?
> 5.00

Entry to check: CCc1cccc2c(=O)c(C(=O)Nc3ccc(C(C)C)cc3C(F)(F)F)c[nH]c12 [Compound 682]
> 5.00
